# assayName: Cmax in Beagle dog at 5 mg/kg, po
# Format: ADME, organism-based, Canis lupus familiaris
# Design: dose 5 mg/kg, route oral
# conditionParameters: in vivo
measurementType: Cmax (µg/mL)
Return type: number; implicit unit µg/mL.

May I ask what Cmax has been recorded for CC(C)Oc1cc(C(F)(F)F)nn1-c1ccc(S(C)(=O)=O)cn1 ?
0.679

====

Each entry below lists one item and its recorded IC50 value.
# systemName: Prostaglandin G/H synthase 1 (Canis lupus familiaris)
# Sequence (Q8HZR1 whole entry): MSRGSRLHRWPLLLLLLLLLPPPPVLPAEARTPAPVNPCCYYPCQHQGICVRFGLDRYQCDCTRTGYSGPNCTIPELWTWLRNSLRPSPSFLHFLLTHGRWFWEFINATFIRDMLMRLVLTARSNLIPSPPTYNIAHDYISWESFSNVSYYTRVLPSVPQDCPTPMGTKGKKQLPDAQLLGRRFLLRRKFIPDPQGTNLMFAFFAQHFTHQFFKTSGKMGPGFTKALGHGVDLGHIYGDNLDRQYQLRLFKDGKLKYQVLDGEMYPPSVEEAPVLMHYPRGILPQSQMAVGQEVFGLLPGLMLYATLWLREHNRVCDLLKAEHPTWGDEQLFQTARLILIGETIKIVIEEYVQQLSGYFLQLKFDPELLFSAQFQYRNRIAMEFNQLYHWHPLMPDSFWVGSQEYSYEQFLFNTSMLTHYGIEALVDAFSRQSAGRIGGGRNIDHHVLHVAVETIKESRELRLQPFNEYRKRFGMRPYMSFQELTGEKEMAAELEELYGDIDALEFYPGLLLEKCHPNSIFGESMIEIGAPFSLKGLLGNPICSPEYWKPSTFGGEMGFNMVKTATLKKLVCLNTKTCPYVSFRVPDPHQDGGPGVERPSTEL
# assayName: Inhibition of COX1 by canine whole blood assay
# Assay type: tissue-based
Return type: number; implicit unit µM.

testSmiles: CS(=O)(=O)c1ccc(-n2nc(C(F)(F)F)c(C#N)c2OC2CCC2)nc1
IC50, µM: 25.3
--
testSmiles: CC(C)CCCSc1c(C#N)c(C(F)(F)F)nn1-c1ccc(S(C)(=O)=O)cn1
IC50, µM: 3.3

Next compound, IC50 to be filled in.
May I ask what IC50 has been recorded for CCCSc1c(C#N)c(C(F)(F)F)nn1-c1ccc(S(C)(=O)=O)cn1 ?
0.2

====

# assayName: Half life in Beagle dog at 5 mg/kg, po
# Type: ADME, organism-based, Canis lupus familiaris
# Parameters: dose 5 mg/kg, route oral
# conditionParameters: in vivo
measurementType: half-life (h)
Return type: number; implicit unit h.

May I ask what half-life has been recorded for CC(C)Oc1cc(C(F)(F)F)nn1-c1ccc(S(C)(=O)=O)cn1 ?
34.8

====

# assayName: Cmax in Beagle dog at 2 mg/kg, po
# Format: ADME, organism-based, Canis lupus familiaris
# Set-up: dose 2 mg/kg, route oral
# conditionParameters: in vivo
measurementType: Cmax (ng/mL)
Return type: number; implicit unit ng/mL.

May I ask what Cmax has been recorded for CS(=O)(=O)c1ccc(-n2nc(C(F)(F)F)c(C#N)c2OCC2CC=CCC2)nc1 (stereo unspecified) ?
363

====

# Organism: Canis lupus familiaris
# assayName: Selectivity for COX1 over COX2 by canine whole blood assay
measurementType: Ratio
Enter a number only.

testSmiles: CS(=O)(=O)c1ccc(-n2nc(C(F)(F)F)c(C#N)c2SCc2ccccc2F)nc1
Ratio: 18.4

Next compound, Ratio to be filled in.
May I ask what Ratio has been recorded for CS(=O)(=O)c1ccc(-n2nc(C(F)(F)F)c(C#N)c2OCC2CCCC2)nc1 ?
6.8

====

# systemName: Cyclooxygenase-2 (Canis lupus familiaris)
# Sequence (Q8SPQ9 whole entry): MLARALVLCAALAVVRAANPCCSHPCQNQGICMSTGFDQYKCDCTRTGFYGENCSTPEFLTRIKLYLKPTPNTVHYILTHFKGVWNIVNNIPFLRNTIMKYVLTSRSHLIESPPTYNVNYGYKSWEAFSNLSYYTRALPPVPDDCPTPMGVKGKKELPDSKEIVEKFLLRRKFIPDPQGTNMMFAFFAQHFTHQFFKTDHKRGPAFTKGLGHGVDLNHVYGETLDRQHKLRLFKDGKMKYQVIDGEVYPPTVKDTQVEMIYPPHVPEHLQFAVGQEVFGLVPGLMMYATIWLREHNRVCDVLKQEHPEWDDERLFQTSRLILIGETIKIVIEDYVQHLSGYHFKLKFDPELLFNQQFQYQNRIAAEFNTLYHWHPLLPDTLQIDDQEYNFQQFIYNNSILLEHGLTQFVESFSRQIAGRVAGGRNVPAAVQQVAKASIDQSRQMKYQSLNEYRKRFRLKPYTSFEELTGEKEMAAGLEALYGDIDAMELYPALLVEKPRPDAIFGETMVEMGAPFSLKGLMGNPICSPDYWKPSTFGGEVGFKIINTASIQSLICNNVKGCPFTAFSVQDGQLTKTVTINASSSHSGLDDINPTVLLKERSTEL
pIC50: −log10 of the molar value.
measurementType: pIC50

compound: CS(=O)(=O)c1ccc(-n2nc(C(F)(F)F)cc2OCc2cccc(F)c2)nc1
systemName: Cyclooxygenase-2 (Canis lupus familiaris)
pIC50: < 6.30
--
compound: CS(=O)(=O)c1ccc(-n2nc(C(F)(F)F)c(C#N)c2OC2CCOC2)nc1 (stereo not drawn)
systemName: Cyclooxygenase-2 (Canis lupus familiaris)
pIC50: < 6.30

Next compound, pIC50 to be filled in.
May I ask what pIC50 has been recorded for CS(=O)(=O)c1ccc(-n2nc(C(F)(F)F)cc2OCc2ccccc2)nc1 ?
< 6.30

Every entry's value here was drawn from ChEMBL document CHEMBL1138171.
